// values below are reported log10 half-life
experiment: Half life in Sprague-Dawley rat at 2.5 to 3.5 mg/kg, iv; assay type: ADME, organism-based; design: dose 2.5-3.5 mg/kg, route intravenous; details: in vivo
Transform log10 | Measure half-life | Unit h

Check out these entries, answers already filled in.
SMILES DATA	log10 half-life
CC(C)(N)CNC(=O)C[C@H]1CC[C@@]2(CC1)OO[C@@]1(O2)C2CC3CC(C2)CC1C3.Cc1ccc(S(=O)(=O)O)cc1	-0.21
Cc1ccc(S(=O)(=O)O)cc1.NC1CCN(C(=O)C[C@H]2CC[C@]3(CC2)OO[C@]2(O3)C3CC4CC(C3)CC2C4)CC1	0.14
CC(C)(N)CNC(=O)C[C@H]1CC[C@]2(CC1)OO[C@]1(O2)C2CC3CC(C2)CC1C3.Cc1ccc(S(=O)(=O)O)cc1	0.10
Cc1ccc(S(=O)(=O)O)cc1.O=C(C[C@H]1CC[C@]2(CC1)OO[C@]1(O2)C2CC3CC(C2)CC1C3)N1CCNCC1	0.23
O=C(C[C@H]1CC[C@]2(CC1)OO[C@]1(O2)C2CC3CC(C2)CC1C3)N1CCC(O)CC1	1.04

Now let's try a different one.
Entry CC(C)(N)CNC(=O)CC[C@H]1CC[C@]2(CC1)OO[C@]1(O2)C2CC3CC(C2)CC1C3.Cc1ccc(S(=O)(=O)O)cc1 , log10 half-life reported as 0.00

---

experiment: Partition coefficient, log D in octanol/buffer at pH 7.4 by chromatographic method; format: physicochemical
METRIC: chromatographic logD
Lab note: jot down the number only; don't add units.

Looking up CC(C)(N)CNC(=O)C[C@H]1CC[C@]2(CC1)OO[C@]1(O2)C2CC3CC(C2)CC1C3.Cc1ccc(S(=O)(=O)O)cc1 , I see its chromatographic logD listed as 2.9

---

assay: Oral bioavailability in Sprague-Dawley rat; assay type: ADME, organism-based; details: in vivo
bioavailability of 30% or higher: 1 (yes). Under 30%: 0 (no).

**Query** Check if bioavailability >= 30% (inclusive). Item: CC(C)(N)CNC(=O)C[C@H]1CC[C@@]2(CC1)OO[C@@]1(O2)C2CC3CC(C2)CC1C3.Cc1ccc(S(=O)(=O)O)cc1
**Result** 0 (no)

**Query** Assess whether reported bioavailability for CC(C)(N)CNC(=O)C[C@H]1CC[C@]2(CC1)OO[C@]1(O2)C2CC3CC(C2)CC1C3.Cc1ccc(S(=O)(=O)O)cc1 sits at 30% or higher.
**Result** 0 (no)

**Query** Confirm if bioavailability reported for the compound Cc1ccc(S(=O)(=O)O)cc1.NC1CCN(C(=O)C[C@H]2CC[C@]3(CC2)OO[C@]2(O3)C3CC4CC(C3)CC2C4)CC1 is 30% or above.
**Result** 1 (yes)

**Query** State whether the measured bioavailability reaches 30%, counting equality as reaching it, for O=C(C[C@H]1CC[C@]2(CC1)OO[C@]1(O2)C2CC3CC(C2)CC1C3)N1CCC(O)CC1
**Result** 0 (no)

**Query** Can CC(C)(N)CNC(=O)CC[C@H]1CC[C@]2(CC1)OO[C@]1(O2)C2CC3CC(C2)CC1C3.Cc1ccc(S(=O)(=O)O)cc1 be said to have bioavailability at or above 30%?
**Result** 1 (yes)

**Query** Please indicate if the recorded bioavailability for Cc1ccc(S(=O)(=O)O)cc1.O=C(C[C@H]1CC[C@]2(CC1)OO[C@]1(O2)C2CC3CC(C2)CC1C3)N1CCNCC1 meets or exceeds 30%.
**Result** 1 (yes)

---

assay: Plasma clearance in Sprague-Dawley rat at 2.5 to 3.5 mg/kg, iv; format: ADME, organism-based; set-up: dose 2.5-3.5 mg/kg, route intravenous
clearance by entry:
Write the figure, then the unit, nothing else.

Please review the entries below; each comes with its answer.
SMILES DATA	METRIC	TEST VALUE
CC(C)(N)CNC(=O)C[C@H]1CC[C@@]2(CC1)OO[C@@]1(O2)C2CC3CC(C2)CC1C3.Cc1ccc(S(=O)(=O)O)cc1	clearance	298 mL/min/kg
C[C@H]1[C@@H](O)O[C@@H]2O[C@@]3(C)CC[C@H]4[C@H](C)CC[C@@H]1[C@@]24OO3	clearance	72 mL/min/kg
Cc1ccc(S(=O)(=O)O)cc1.O=C(C[C@H]1CC[C@]2(CC1)OO[C@]1(O2)C2CC3CC(C2)CC1C3)N1CCNCC1	clearance	168 mL/min/kg

Field: next compound
Entry O=C(C[C@H]1CC[C@]2(CC1)OO[C@]1(O2)C2CC3CC(C2)CC1C3)N1CCC(O)CC1 ; clearance = 37 mL/min/kg

---

test: Volume of distribution in Sprague-Dawley rat at 2.5 to 3.5 mg/kg, iv; format: ADME, organism-based; design: dose 2.5-3.5 mg/kg, route intravenous; conditions: in vivo
METRIC: Vd (L/kg)
Number in L/kg, nothing else.

COMPOUND	TEST VALUE
O=C(C[C@H]1CC[C@]2(CC1)OO[C@]1(O2)C2CC3CC(C2)CC1C3)N1CCC(O)CC1	36

Reported Vd ( CC(C)(N)CNC(=O)C[C@H]1CC[C@@]2(CC1)OO[C@@]1(O2)C2CC3CC(C2)CC1C3.Cc1ccc(S(=O)(=O)O)cc1 ) = 16

Recorded Vd (compound CC(C)(N)CNC(=O)C[C@H]1CC[C@]2(CC1)OO[C@]1(O2)C2CC3CC(C2)CC1C3.Cc1ccc(S(=O)(=O)O)cc1 [ARTEROLANE] ): 16

Noted for Cc1ccc(S(=O)(=O)O)cc1.O=C(C[C@H]1CC[C@]2(CC1)OO[C@]1(O2)C2CC3CC(C2)CC1C3)N1CCNCC1 : its Vd reads 25

response.value for CC(C)(N)CNC(=O)CC[C@H]1CC[C@]2(CC1)OO[C@]1(O2)C2CC3CC(C2)CC1C3.Cc1ccc(S(=O)(=O)O)cc1 (field: Vd) = 12

Item: C[C@H]1[C@@H](O)O[C@@H]2O[C@@]3(C)CC[C@H]4[C@H](C)CC[C@@H]1[C@@]24OO3 [ARTENIMOL] | Vd: 3

Vd in this record for Cc1ccc(S(=O)(=O)O)cc1.NC1CCN(C(=O)C[C@H]2CC[C@]3(CC2)OO[C@]2(O3)C3CC4CC(C3)CC2C4)CC1 : 19

---

assay: Plasma clearance in Sprague-Dawley rat at 2.5 to 3.5 mg/kg, iv; assay type: ADME, organism-based; design: dose 2.5-3.5 mg/kg, route intravenous
METRIC: clearance (mL/min/kg)
A number alone suffices; assume mL/min/kg.

Record excerpt, results attached:
SMILES DATA	TEST VALUE
Cc1ccc(S(=O)(=O)O)cc1.NC1CCN(C(=O)C[C@H]2CC[C@]3(CC2)OO[C@]2(O3)C3CC4CC(C3)CC2C4)CC1	157
CC(C)(N)CNC(=O)C[C@H]1CC[C@]2(CC1)OO[C@]1(O2)C2CC3CC(C2)CC1C3.Cc1ccc(S(=O)(=O)O)cc1	141

Shifting focus to the compound that follows.
Lab note: CC(C)(N)CNC(=O)CC[C@H]1CC[C@]2(CC1)OO[C@]1(O2)C2CC3CC(C2)CC1C3.Cc1ccc(S(=O)(=O)O)cc1 gave clearance of 134

Data origin: ChEMBL document CHEMBL1156768
